- SUBJECT_OF_TEST: UniProt Q06187
- EXPERIMENT_DESCRIPTION: biochemical
- TEST_PARAMETERS: read-out: BTK inhibition (%), 0.75 uM BTK, […] probe 3l, 15 min preincubation
ASSAY_ENDPOINT: inhibition at 10 µM
The reply should read as a number followed by its unit.

In: Returns the measured inhibition at 10 µM for the input molecule. Input: C[N+](C)(C)CC(O)CC(=O)O (stereo not drawn)
Out: -11.7%

In: Returns the measured inhibition at 10 µM for the input molecule. Input: Cc1ccccc1N=Nc1ccc(NC(=O)c2ccnn2C)c(C)c1
Out: 6.9%

In: Returns the measured inhibition at 10 µM for the input molecule. Input: CCCCC1OC(=O)c2ccccc21 (stereo not drawn)
Out: 6.9%

In: Returns the measured inhibition at 10 µM for the input molecule. Input: Cc1cccc(N(C)C(=S)Oc2ccc3ccccc3c2)c1
Out: 4.7%

In: Returns the measured inhibition at 10 µM for the input molecule. Input: Cc1cc(Nc2ncnc3ccc(NC4=NC(C)(C)CO4)cc23)ccc1Oc1ccn2ncnc2c1
Out: 71.7%

In: Returns the measured inhibition at 10 µM for the input molecule. Input: COc1cc2nc(N3CCCC3)nc(NCCCCCN3CCCC3)c2cc1OC
Out: 17.8%

In: Returns the measured inhibition at 10 µM for the input molecule. Input: CC(=O)c1ccc(C)cc1O
Out: -6.9%

In: Returns the measured inhibition at 10 µM for the input molecule. Input: CCCc1cc(-c2nc(-c3ccc(C)cc3)cs2)ccn1
Out: 6.9%

In: Returns the measured inhibition at 10 µM for the input molecule. Input: COc1ccc2c(Oc3ccc(NC(=O)c4c(C)n(CC(C)(C)O)n(-c5ccccc5)c4=O)nc3)ccnc2c1
Out: 12.4%

In: Returns the measured inhibition at 10 µM for the input molecule. Input: C=CCc1cc(OC)c(O)c(C(=O)NCCO)c1
Out: -16.3%

In: Returns the measured inhibition at 10 µM for the input molecule. Input: C[C@H](C[C@H](O)[C@@H](O)C(C)(C)O)C1=C2C[C@H](O)[C@H]3[C@@]4(C)CCC(=O)C(C)(C)[C@@H]4CC[C@]3(C)[C@@]2(C)CC1
Out: -29.3%

In: Returns the measured inhibition at 10 µM for the input molecule. Input: CC(C)(C)c1cnc(CSc2cnc(NC(=O)C3CCNCC3)s2)o1
Out: -6.2%

In: Returns the measured inhibition at 10 µM for the input molecule. Input: C[C@H](C(=O)O)c1ccc(-c2ccccc2)c(F)c1
Out: -2.1%

In: Returns the measured inhibition at 10 µM for the input molecule. Input: C[C@@]1(CO)C[C@@H](O)C[C@@]2(C)[C@@H]3CC[C@](C)([C@@H](O)CO)C=C3CC[C@H]12
Out: 20.8%

In: Returns the measured inhibition at 10 µM for the input molecule. Input: Cc1cc(/C=C/C#N)cc(C)c1Nc1ccnc(Nc2ccc(C#N)cc2)n1
Out: 19.3%

In: Returns the measured inhibition at 10 µM for the input molecule. Input: COc1cc(C(=O)NC2CCCNC2)cc(OC)c1OC (stereo not drawn)
Out: -3.1%

In: Returns the measured inhibition at 10 µM for the input molecule. Input: C[C@]12C[C@@H](O)[C@@H]3C[C@@]1(O[C@@H]1O[C@H](CO)[C@@H](O)[C@H](O)[C@H]1O)[C@]3(COC(=O)c1ccccc1)C(=O)O2
Out: -12.4%

In: Returns the measured inhibition at 10 µM for the input molecule. Input: COc1cc2c(Nc3ccc(Br)cc3F)ncnc2cc1OCC1CCN(C)CC1
Out: 25.5%

* * *

Can you tell me inhibition at 10 µM for the items I'm about to list?
- SUBJECT_OF_TEST: BTK (Homo sapiens)
- EXPERIMENT_DESCRIPTION: biochemical
- TEST_PARAMETERS: read-out: BTK inhibition (%), 0.75 uM BTK, […] probe 3l, 15 min preincubation
Answer with a number only, understood to be in %.

In: Returns the measured inhibition at 10 µM for the input compound. Input: CC(C)c1cnn2c(NCc3ccccc3)cc(NCCCCCCN)nc12
Out: -25.5

In: Returns the measured inhibition at 10 µM for the input compound. Input: NC[C@@H]1O[C@H](O[C@H]2[C@@H](O)[C@H](O[C@@H]3[C@@H](O)[C@H](N)C[C@H](N)[C@H]3O[C@H]3O[C@H](CN)[C@@H](O)[C@H](O)[C@H]3N)O[C@@H]2CO)[C@H](N)[C@@H](O)[C@@H]1O
Out: 4.3

In: Returns the measured inhibition at 10 µM for the input compound. Input: CC(C)C1=CC2=CC[C@@H]3[C@](C)(CCC[C@@]3(C)C(=O)O)[C@H]2CC1
Out: -9.3

* * *

- SUBJECT_OF_TEST: UniProtKB Q06187
- EXPERIMENT_DESCRIPTION: biochemical
- TEST_PARAMETERS: read-out: BTK inhibition (%)
Can you tell me inhibition at 10 µM for the items I'm about to list?
Answer with a number only, understood to be in %.

In: Returns the measured inhibition at 10 µM for the input compound. Input: C/C=C(\C)C(=O)N[C@@H](c1ccccc1)[C@@H](O)C(=O)O[C@H]1C[C@@]2(O)[C@@H](OC(=O)c3ccccc3)[C@@H]3[C@]4(OC(C)=O)CO[C@@H]4C[C@H](O)[C@@]3(C)C(=O)[C@H](OC(C)=O)C(=C1C)C2(C)C
Out: -8.6

In: Returns the measured inhibition at 10 µM for the input compound. Input: Oc1ccc(-c2c(-c3ccccc3)nn3c(C(F)(F)F)cc(C(F)(F)F)nc23)cc1
Out: 27.8

In: Returns the measured inhibition at 10 µM for the input compound. Input: CCC(=O)O[C@H]1CC[C@H]2[C@@H]3CC[C@H]4CC(=O)[C@H](C)C[C@]4(C)[C@H]3CC[C@]12C
Out: -14

* * *

- SUBJECT_OF_TEST: BTK (Homo sapiens, UniProt Q06187)
- Sequence (Q06187 402-655 limits assumed): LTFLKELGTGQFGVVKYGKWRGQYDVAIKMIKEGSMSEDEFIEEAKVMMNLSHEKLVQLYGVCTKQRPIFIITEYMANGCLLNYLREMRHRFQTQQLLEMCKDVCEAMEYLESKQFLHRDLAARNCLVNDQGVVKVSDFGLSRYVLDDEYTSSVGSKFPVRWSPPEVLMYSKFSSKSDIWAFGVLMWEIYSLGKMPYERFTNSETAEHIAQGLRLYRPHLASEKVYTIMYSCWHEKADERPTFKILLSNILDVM
- TEST_PARAMETERS: 0.75 uM BTK, […] probe 3l, 15 min preincubation, 10 µM, inhibitor, BTK inhibition (%)
ASSAY_ENDPOINT: BTK inhibition (%)
Answer with a number only, understood to be in %.

In: Returns the measured BTK inhibition (%) for the input molecule. Input: CCC(=O)NS(=O)(=O)c1ccc(-c2c(-c3ccccc3)noc2C)cc1 [PCM-0214825]
Out: 5.5

In: Returns the measured BTK inhibition (%) for the input molecule. Input: CCC(=O)NS(=O)(=O)c1ccc(-c2c(-c3ccccc3)noc2C)cc1 [PCM-0216557]
Out: 2.3

In: Returns the measured BTK inhibition (%) for the input molecule. Input: C/C=C(/C)C(=O)O[C@H]1[C@@H](OC(C)=O)c2c(ccc3ccc(=O)oc23)OC1(C)C [PCM-0216546]
Out: -14.7

In: Returns the measured BTK inhibition (%) for the input molecule. Input: O=c1c(O)c(-c2ccc(O)c(O)c2)oc2cc(O)cc(O)c12
Out: 39.3

In: Returns the measured BTK inhibition (%) for the input molecule. Input: COc1cc2c3cc1Oc1c(OC)c(OC)cc4c1[C@@H](Cc1ccc(O)c(c1)Oc1ccc(cc1)C[C@@H]3N(C)CC2)N(C)CC4
Out: 17.8

In: Returns the measured BTK inhibition (%) for the input molecule. Input: CC[C@H]1OC(=O)[C@H](C)[C@@H](O[C@H]2C[C@@](C)(OC)[C@@H](O)[C@H](C)O2)[C@H](C)[C@@H](O[C@@H]2O[C@H](C)C[C@H](N(C)C)[C@H]2O)[C@](C)(O)C[C@@H](C)CN(C)[C@H](C)[C@@H](O)[C@]1(C)O [PCM-0214754]
Out: 1.6

In: Returns the measured BTK inhibition (%) for the input molecule. Input: Cc1cc(C)nc(NS(=O)(=O)c2ccc(N)cc2)n1 [PCM-0086513]
Out: -23.3

* * *

- SUBJECT_OF_TEST: BTK (Homo sapiens, UniProt Q06187)
- EXPERIMENT_DESCRIPTION: biochemical
- TEST_PARAMETERS: read-out: BTK inhibition (%), 0.75 uM BTK, […] probe 3l, 15 min preincubation
ASSAY_ENDPOINT: inhibition at 10 µM (%)
Answer with a number only, understood to be in %.

In: Returns the measured inhibition at 10 µM for the input molecule. Input: Cc1cc(N2CCOCC2)ccc1Nc1nc(NC2CCCCC2)c2[nH]cnc2n1 [PCM-0215306]
Out: 33.2

In: Returns the measured inhibition at 10 µM for the input molecule. Input: CC[N+](CC)(CC)CCOc1cccc(OCC[N+](CC)(CC)CC)c1OCC[N+](CC)(CC)CC [PCM-0065294]
Out: 9.3

In: Returns the measured inhibition at 10 µM for the input molecule. Input: C[C@]12CC[C@@H]3c4ccc(OC(=O)c5ccccc5)cc4CC[C@H]3[C@@H]1CC[C@@H]2O [PCM-0095636]
Out: -7.8

In: Returns the measured inhibition at 10 µM for the input molecule. Input: Cc1ccc(C=O)o1 [PCM-0216625]
Out: -5.4

In: Returns the measured inhibition at 10 µM for the input molecule. Input: COC1=C(OC)C(=O)C(CCCCCCCCCCO)=C(C)C1=O [PCM-0085939]
Out: -11

In: Returns the measured inhibition at 10 µM for the input molecule. Input: C=CCc1cc(OC)c(OC)c(OC)c1 [PCM-0215912]
Out: 3.1

In: Returns the measured inhibition at 10 µM for the input molecule. Input: Cn1c(=O)cc(C(=O)Nc2ccc3c(c2)OCCO3)c2ccccc21 [PCM-0215702]
Out: -3.9

In: Returns the measured inhibition at 10 µM for the input molecule. Input: CC(C)C(=O)Nc1ccc([N+](=O)[O-])c(C(F)(F)F)c1 [PCM-0065325]
Out: -3.4

In: Returns the measured inhibition at 10 µM for the input molecule. Input: CC1(C)C2CCC1(C)C(O)C2 (stereo not drawn) [PCM-0214868]
Out: 1.6
